- Tested on: modified Shay rat
- Assay Overview: Antiulcerogenic and secretion-inhibiting action on the modified Shay rat (pylorus ligature plus oral acetylsalicylic acid)
- Type: in vivo
- Test Context: 1.0 μmol/kg i.d. (intraduodenal), 4 hours
Measure Name: Protective action on stomach: Reduction in lesion index (%)
Form entry: value (%) — number only.

Entry under test: Cc1nc2c(O[C@@H]3c4ccccc4C[C@H]3O)cccn2c1CO (relative stereo) . Its Protective action on stomach: Reduction in lesion index was 47

The value of Protective action on stomach: Reduction in lesion index measured for the compound Cc1nc2c(O[C@@H]3c4ccccc4C[C@H]3O)cccn2c1N.Cl (relative stereo) turned out to be 27

// recorded Protective action on stomach: Reduction in lesion index for Cc1nc2c(O[C@@H]3c4ccccc4C[C@H]3O)cccn2c1C (relative stereo) : 47

For Cc1nc2c(O[C@@H]3c4ccccc4C[C@H]3O)cccn2c1CC#N (relative stereo) the compound record lists Protective action on stomach: Reduction in lesion index as 35
